biological target: CAL PDZ domain (UniProt Q9HD26-2 278-362); assay: fluorescence polarisation
Measured property: Ki (µM)

P = CEVYLLNSTTL [C-ClC3B10]
Q = CRPGFASESKV [C-β1AR10]
R = CANGLMQTSKL [C-SSR5_(10)]
q: # rank by Ki, ascending (min first) Use the labels to give the requested order.
a: R, P, Q
(R: 22.6 µM, P: 110 µM, Q: 410 µM)

Every entry's value here was drawn from paper PMC2582146.
